System: Serratia marcescens
Assay overview: Compound was tested for antibacterial activity against gram negative Serratia marcescens No.16-2
Assay type: functional
Condition notes: Serratia marcescens; read-out: MIC
Observed property: MIC (µg/mL)
# number only, unit µg/mL dropped from output

Using the record for COc1c(N2C[C@H](CN)[C@@H](C(F)(F)F)C2)c(F)cc2c(=O)c(C(=O)O)cn(C3CC3)c12.Cl , report its MIC. 0.78

Using the record for COc1c(N2C[C@@H](CN)[C@H](C)C2)c(F)cc2c(=O)c(C(=O)O)cn(C3CC3)c12.Cl , report its MIC. 0.39

Using the record for COc1c(N2C[C@@H](N)[C@H](C(F)(F)F)C2)c(F)cc2c(=O)c(C(=O)O)cn(C3CC3)c12.O=C(O)C(F)(F)F , report its MIC. 3.13

Using the record for COc1c(N2CC[C@@](CO)(C(F)(F)F)C2)c(F)cc2c(=O)c(C(=O)O)cn(C3CC3)c12 , report its MIC. 12.5

Using the record for COc1c(N2C[C@H](CO)[C@H](C(F)(F)F)C2)c(F)cc2c(=O)c(C(=O)O)cn(C3CC3)c12 , report its MIC. 3.13
